ASSAY_NOTES: Degradation test by human blood plasma, MALDI-TOFMS analysis
Type: in vitro ADME
REPORTED_CONDITIONS: 50% by mass human blood plasma; 120 min; read-out: degradation resistance (proportion of the peptide retained without degradation)
No end group written: not given here.
PROPERTY: remaining at 2 h (%)
Use % as the unit, but write only the number.

[[record]]
sequence_record = "RRPTTWHKPGRRPTTWHKPGRRPTTWHKP [Peptide 12]"
measurement = 100


Here is the next item to consider.
Dear colleague, I am looking for the recorded remaining at 2 h of the following sequence: RRPTTWHKPGRRPTTWHKP [compound 9] 65
